method.notes: Tmax in rat at 3 mg/kg, po administered in sodium acetate buffer at pH 4.63
Type: ADME, organism-based
Parameters: dose 3 mg/kg, route oral
experimental.conditions: in vivo
endpoint: Tmax (h)
All answers are understood in h, so give the number only.

If you can, please state the reported Tmax value of NC[C@]1(c2cccc(Cl)c2)CC[C@H](N2CCc3c(nc(C(F)(F)F)nc3C3CC3)C2=O)CC1 .
3.3

====

method.notes: Clearance in rat at 1 mg/kg, iv administered in PBS buffer at pH 6.8
Assay type: ADME, organism-based
Set-up: dose 1 mg/kg, route intravenous
experimental.conditions: in vivo
endpoint: clearance (mL/min/kg)
All answers are understood in mL/min/kg, so give the number only.

If you can, please state the reported clearance value of NC[C@]1(c2cccc(Cl)c2)CC[C@H](N2CCn3c(nnc3C(F)(F)F)C2=O)CC1 .
69
